B1: Hairpin Ribozyme (parent)
chain: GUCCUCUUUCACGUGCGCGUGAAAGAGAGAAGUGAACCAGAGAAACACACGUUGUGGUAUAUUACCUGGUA

Variants of: B1
Assay: self-cleavage, relative activity (ratio to wild type); higher = more cleavage; co-transcriptional
READOUT LABEL: self-cleavage
In your answer, state the number alone without any accompanying words.

Before answering, review these 2 worked examples.
{"SEQUENCE CODE": "GUCCCCUUUCACGUGCGCGUGAAAGACAGAAGUGAACCAGAGAAACACACGUUGUGGUAUAUUACCUGGUA [U5C G27C]", "self-cleavage": 0.15}
{"SEQUENCE CODE": "GUCCUCUUUCACGUGCGCUUGAAAGAGAGAAGUGAACCAGAGAAACACACGUUGUGGUAUAUCACCUGGUA [G19U U63C]", "self-cleavage": 0.164}

In: Specify self-cleavage for GUCCUCUUUCACGUGCGCGUGAAAGAGAGAAGUGAACCAGAGAAACACACGUUGUGGUAUAUAAGCUGGUA [U63A C65G] and stop.
Out: 0.173
